# METHOD SUMMARY: in vivo
# ASSAY SETUP: Sprague-Dawley, rat, kidney, iv, 2 mg/kg
PROPERTY LABEL: concentration at 24 h (ng/g)

| STRUCTURE STRING | PROPERTY LABEL | REPORTED VALUE |
| --- | --- | --- |
| CC[C@H](C)C[C@H](C)CCCCCCCCC(=O)N[C@H]1C[C@@H](O)[C@@H](NCCN)NC(=O)[C@@H]2[C@@H](O)CCN2C(=O)[C@H]([C@H](O)CCN)NC(=O)[C@H]([C@H](O)[C@@H](O)c2ccc(O)cc2)NC(=O)[C@@H]2C[C@@H](O)CN2C(=O)[C@H]([C@@H](C)O)NC1=O | concentration at 24 h | 500 |

====

# METHOD SUMMARY: in vivo
# ASSAY SETUP: Sprague-Dawley, rat, lung, inhaled, 2 mg/kg
PROPERTY LABEL: concentration at 48 h (ng/g)

| COMPOUND | PROPERTY LABEL | REPORTED VALUE |
| --- | --- | --- |
| CC[C@H](C)C[C@H](C)CCCCCCCCC(=O)N[C@H]1C[C@@H](O)[C@@H](NCCN)NC(=O)[C@@H]2[C@@H](O)CCN2C(=O)[C@H]([C@H](O)CCN)NC(=O)[C@H]([C@H](O)[C@@H](O)c2ccc(O)cc2)NC(=O)[C@@H]2C[C@@H](O)CN2C(=O)[C@H]([C@@H](C)O)NC1=O [Caspofungin, caspofungin] | concentration at 48 h | 3370 |

====

# METHOD SUMMARY: in vivo
# ASSAY SETUP: Sprague-Dawley, rat, plasma, inhaled, 2 mg/kg
PROPERTY LABEL: concentration at 0.5 h (ng/mL)

| STRUCTURE STRING | PROPERTY LABEL | MEASUREMENT UNITS | REPORTED VALUE |
| --- | --- | --- | --- |
| CC[C@H](C)C[C@H](C)CCCCCCCCC(=O)N[C@H]1C[C@@H](O)[C@@H](NCCN)NC(=O)[C@@H]2[C@@H](O)CCN2C(=O)[C@H]([C@H](O)CCN)NC(=O)[C@H]([C@H](O)[C@@H](O)c2ccc(O)cc2)NC(=O)[C@@H]2C[C@@H](O)CN2C(=O)[C@H]([C@@H](C)O)NC1=O | concentration at 0.5 h | ng/mL | 2030 |

====

# METHOD SUMMARY: in vivo
# ASSAY SETUP: Sprague-Dawley, rat, plasma, inhaled, 2 mg/kg

| STRUCTURE STRING | concentration at 168 h (ng/mL) |
| --- | --- |
| CC[C@H](C)C[C@H](C)CCCCCCCCC(=O)N[C@H]1C[C@@H](O)[C@@H](NCCN)NC(=O)[C@@H]2[C@@H](O)CCN2C(=O)[C@H]([C@H](O)CCN)NC(=O)[C@H]([C@H](O)[C@@H](O)c2ccc(O)cc2)NC(=O)[C@@H]2C[C@@H](O)CN2C(=O)[C@H]([C@@H](C)O)NC1=O | 0 |

====

# METHOD SUMMARY: in vivo
# ASSAY SETUP: Sprague-Dawley, rat, lung, inhaled, 2 mg/kg
PROPERTY LABEL: concentration at 2 h (ng/g)

| STRUCTURE STRING | PROPERTY LABEL | REPORTED VALUE |
| --- | --- | --- |
| CC[C@H](C)C[C@H](C)CCCCCCCCC(=O)N[C@H]1C[C@@H](O)[C@@H](NCCN)NC(=O)[C@@H]2[C@@H](O)CCN2C(=O)[C@H]([C@H](O)CCN)NC(=O)[C@H]([C@H](O)[C@@H](O)c2ccc(O)cc2)NC(=O)[C@@H]2C[C@@H](O)CN2C(=O)[C@H]([C@@H](C)O)NC1=O | concentration at 2 h | 10400 |

====

# METHOD SUMMARY: in vivo
# ASSAY SETUP: Sprague-Dawley, rat, lung, inhaled, 7.2 mg/kg

| STRUCTURE STRING | concentration at 0 h / ng/g |
| --- | --- |
| CC[C@H](C)C[C@H](C)CCCCCCCCC(=O)N[C@H]1C[C@@H](O)[C@@H](NCCN)NC(=O)[C@@H]2[C@@H](O)CCN2C(=O)[C@H]([C@H](O)CCN)NC(=O)[C@H]([C@H](O)[C@@H](O)c2ccc(O)cc2)NC(=O)[C@@H]2C[C@@H](O)CN2C(=O)[C@H]([C@@H](C)O)NC1=O | 39000 |

====

# METHOD SUMMARY: in vivo
# ASSAY SETUP: Sprague-Dawley, rat, liver, iv, 2 mg/kg
PROPERTY LABEL: concentration at 24 h (ng/g)

| STRUCTURE STRING | MEASUREMENT UNITS | REPORTED VALUE |
| --- | --- | --- |
| CC[C@H](C)C[C@H](C)CCCCCCCCC(=O)N[C@H]1C[C@@H](O)[C@@H](NCCN)NC(=O)[C@@H]2[C@@H](O)CCN2C(=O)[C@H]([C@H](O)CCN)NC(=O)[C@H]([C@H](O)[C@@H](O)c2ccc(O)cc2)NC(=O)[C@@H]2C[C@@H](O)CN2C(=O)[C@H]([C@@H](C)O)NC1=O | ng/g | 660 |

====

# METHOD SUMMARY: in vivo
# ASSAY SETUP: Sprague-Dawley, rat, kidney, iv, 2 mg/kg

| STRUCTURE STRING | MEASUREMENT UNITS | concentration at 2 h |
| --- | --- | --- |
| CC[C@H](C)C[C@H](C)CCCCCCCCC(=O)N[C@H]1C[C@@H](O)[C@@H](NCCN)NC(=O)[C@@H]2[C@@H](O)CCN2C(=O)[C@H]([C@H](O)CCN)NC(=O)[C@H]([C@H](O)[C@@H](O)c2ccc(O)cc2)NC(=O)[C@@H]2C[C@@H](O)CN2C(=O)[C@H]([C@@H](C)O)NC1=O | ng/g | 670 |

====

# METHOD SUMMARY: in vivo
# ASSAY SETUP: Sprague-Dawley, rat, lung, inhaled, 2 mg/kg

| STRUCTURE STRING | MEASUREMENT UNITS | concentration at 312 h |
| --- | --- | --- |
| CC[C@H](C)C[C@H](C)CCCCCCCCC(=O)N[C@H]1C[C@@H](O)[C@@H](NCCN)NC(=O)[C@@H]2[C@@H](O)CCN2C(=O)[C@H]([C@H](O)CCN)NC(=O)[C@H]([C@H](O)[C@@H](O)c2ccc(O)cc2)NC(=O)[C@@H]2C[C@@H](O)CN2C(=O)[C@H]([C@@H](C)O)NC1=O | ng/g | 40 |

====

# METHOD SUMMARY: in vivo
# ASSAY SETUP: Sprague-Dawley, rat, plasma, iv, 2 mg/kg

| STRUCTURE STRING | MEASUREMENT UNITS | concentration at 24 h |
| --- | --- | --- |
| CC[C@H](C)C[C@H](C)CCCCCCCCC(=O)N[C@H]1C[C@@H](O)[C@@H](NCCN)NC(=O)[C@@H]2[C@@H](O)CCN2C(=O)[C@H]([C@H](O)CCN)NC(=O)[C@H]([C@H](O)[C@@H](O)c2ccc(O)cc2)NC(=O)[C@@H]2C[C@@H](O)CN2C(=O)[C@H]([C@@H](C)O)NC1=O | ng/mL | 800 |
